Target: Ataxin-2 (Homo sapiens) (UniProt Q99700)
Sequence (Q99700 whole entry): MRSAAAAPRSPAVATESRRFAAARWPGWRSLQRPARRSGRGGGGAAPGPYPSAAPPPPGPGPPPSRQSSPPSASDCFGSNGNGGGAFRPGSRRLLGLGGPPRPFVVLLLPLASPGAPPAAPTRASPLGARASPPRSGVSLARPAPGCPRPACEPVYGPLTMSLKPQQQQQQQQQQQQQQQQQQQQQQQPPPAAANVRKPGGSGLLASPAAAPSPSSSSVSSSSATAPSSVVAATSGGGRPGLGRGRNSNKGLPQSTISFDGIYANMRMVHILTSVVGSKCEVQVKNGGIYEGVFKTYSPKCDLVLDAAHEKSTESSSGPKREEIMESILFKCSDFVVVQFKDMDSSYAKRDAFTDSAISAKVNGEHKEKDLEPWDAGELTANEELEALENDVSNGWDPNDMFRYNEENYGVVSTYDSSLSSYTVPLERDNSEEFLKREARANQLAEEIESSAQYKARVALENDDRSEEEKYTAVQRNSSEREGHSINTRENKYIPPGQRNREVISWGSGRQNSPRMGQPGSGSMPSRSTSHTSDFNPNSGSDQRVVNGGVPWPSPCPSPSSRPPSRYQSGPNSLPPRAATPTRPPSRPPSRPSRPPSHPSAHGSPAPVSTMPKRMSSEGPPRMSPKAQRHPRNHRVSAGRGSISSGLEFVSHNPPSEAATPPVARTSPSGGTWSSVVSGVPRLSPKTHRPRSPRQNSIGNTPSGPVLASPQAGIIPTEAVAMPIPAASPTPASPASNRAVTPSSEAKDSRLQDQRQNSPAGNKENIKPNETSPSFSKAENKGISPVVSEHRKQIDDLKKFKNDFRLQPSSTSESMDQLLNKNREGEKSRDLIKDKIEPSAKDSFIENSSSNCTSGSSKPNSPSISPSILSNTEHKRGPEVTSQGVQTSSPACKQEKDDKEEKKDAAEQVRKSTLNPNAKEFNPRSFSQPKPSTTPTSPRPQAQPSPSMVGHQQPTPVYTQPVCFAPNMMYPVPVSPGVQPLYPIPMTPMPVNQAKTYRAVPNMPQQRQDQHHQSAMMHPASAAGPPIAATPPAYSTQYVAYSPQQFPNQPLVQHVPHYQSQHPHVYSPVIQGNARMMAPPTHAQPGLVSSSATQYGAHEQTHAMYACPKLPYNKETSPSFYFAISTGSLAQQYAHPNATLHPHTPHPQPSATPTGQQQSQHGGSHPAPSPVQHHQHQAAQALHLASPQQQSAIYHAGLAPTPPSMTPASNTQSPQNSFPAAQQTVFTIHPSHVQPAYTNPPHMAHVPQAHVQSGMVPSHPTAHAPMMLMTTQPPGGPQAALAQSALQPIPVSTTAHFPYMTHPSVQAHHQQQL
Experiment: qHTS for Inhibitors of ATXN expression.
Type: functional
In all, about 400,000 compounds went through this assay and about 2,100 (0.53%) were called active. Inconclusive results (about 14%) are left out. How the calls were made is not given here. For the sample, actives were picked, then their nearest neighbours and some compounds at random.
Mark one answer only. Choices: active, inactive

>>> class_label("COc1ccc2sc(-c3ccc(N(C)C)cc3)c(C#Cc3cncn3C)c2c1")
"inactive"
>>> class_label("COc1cc(OC)cc(OC(=O)c2cccc(S(=O)(=O)N3CCN(C)CC3)c2)c1")
"inactive"
>>> class_label("COc1ccc(NC(=O)CON=CC(=O)Nc2ccc(C)cc2)c(OC)c1")
"inactive"
>>> class_label("CC1CCN(S(=O)(=O)c2ccc(NC(=O)CN3CCCC3)cc2)CC1")
"inactive"
>>> class_label("COc1cccc(-c2ccc3c(N)c(C(=O)Nc4cc(F)ccc4F)sc3n2)c1")
"inactive"

Exam item: GET /call?item= COc1ccc2sc(-c3ccc(N(C)C)cc3)c(C#CC(C)(C)O)c2c1 returns the recorded outcome of this test.
Marked response: inactive

Exam item: Entry Oc1ccccc1C1SC(c2ccccc2O)SC(c2ccccc2O)S1 (configuration not stated) please
Marked response: active

* * *

Target: Ataxin-2 (Homo sapiens)
Experiment: qHTS for Inhibitors of ATXN expression.
Assay type: functional
In all, about 400,000 compounds went through this assay and about 2,100 (0.53%) were called active. About 14% were inconclusive and are not listed. No rule for the calls is given here. Only a selection was taken, and actives are over-represented in it overall.
Your response should consist of one outcome taken from 1.0 = active, 0.0 = inactive

Field: example entries. Status: answers known.
>>> class_label("COc1ccc(Cl)cc1NC(=O)CN1C(=O)NC(C)(Cc2ccc(OC)c(OC)c2)C1=O (centres undefined)")
0.0
>>> class_label("CC(C)Oc1ccc(C(CCN)C2CCCCC2)cc1 (centres undefined)")
1.0
>>> class_label("Cc1cc(=O)oc2c(CN3CCN(CCO)CC3)c(O)ccc12")
0.0

Note: attention shifts to another entry.
Exam item: Identify the outcome logged in this assay for the compound shown: Cc1cc(C)c(CN2CCN(CCCn3cnc(C(=O)Nc4ccc(C)c(C)c4)n3)CC2)c(C)c1
Marked response: 1.0

* * *

Molecular target: Ataxin-2 (Homo sapiens)
Test: qHTS for Inhibitors of ATXN expression.
Format: functional
In all, about 400,000 compounds went through this assay and about 2,100 (0.53%) were called active. Roughly 14% stayed inconclusive and do not appear here. Many of the other results were omitted from the sample, so actives are more common in it than they were.
Endpoint: Potency

Recorded results for 5 compounds are shown here.
>>> assay_result("Oc1c(Cl)cc(Cl)cc1/C=N/c1nc[nH]n1")
"inactive"
>>> assay_result("Oc1ccc(Cl)cc1/C=N/c1ccc2c3c(cccc13)CC2")
"inactive"
>>> assay_result("CCOC(=O)C1CCN(C(=O)Nc2ccc3nc(-c4ccco4)c(-c4ccco4)nc3c2)CC1")
"inactive"
>>> assay_result("CCN(CC)CC(C)CNC(=O)c1cc(-c2ccc(Br)s2)nc2ccccc12 (stereo unspecified)")
"14.1 µM (active)"
>>> assay_result("CC[C@@H]1C(c2cccc(Cl)c2)=NN(c2ccc(Br)cc2)[C@H]1C(=O)N1CCOC1=O")
"inactive"

Exam item: Recorded Potency of O=C(N=Nc1c(O)n(Cc2ccccc2)c2ccccc12)c1cc2ccccc2cc1O , please.
Marked response: 39.8 µM (active)

Exam item: Also check CCCCC(=O)N/N=C/c1ccc(-c2ccc([N+](=O)[O-])cc2)o1
Marked response: inactive

Exam item: Record: Cc1ccc(-c2cc(C(=O)NCC3(N(C)C)CCCCC3)c3ccccc3n2)o1
Marked response: inactive

Exam item: Let us now turn to COc1cccc(-c2cnc3c(NC(C)=O)cc(-c4cccc(NS(C)(=O)=O)c4)cn23)c1
Marked response: 28.2 µM (active)

Exam item: Follow-up entry: Cc1ccnn1CC(=O)N/N=C/c1c[nH]nc1-c1ccccc1
Marked response: inactive

Exam item: Can you handle CCCN1C(=O)/C(=C/c2c(N3CCNC(=O)C3CC(=O)OCC)nc3c(C)cccn3c2=O)SC1=S (stereo unspecified) next?
Marked response: inactive

Exam item: Then this compound: Sc1nnc(-c2ccco2)n1-c1ccc(Br)cc1
Marked response: inactive

Exam item: Lookup O=C1C=C(Nc2cccnc2)c2ccccc2C1=O
Marked response: 39.8 µM (active)

Exam item: Continue with Cc1nc(-c2ccc(S(=O)(=O)Oc3ccc(Cl)cc3Cl)s2)cs1
Marked response: inactive

Exam item: Quick one: Cc1cccnc1Nc1nc(-c2ccccn2)cs1
Marked response: 0.794 µM (active)

Exam item: Follow-up item: COc1ccc(-c2ccc(/C=N/NC(=O)c3cccnc3)o2)c([N+](=O)[O-])c1
Marked response: inactive

Exam item: Now consider O=C(Cc1cc(=O)oc2cc(O)ccc12)NC(Cc1ccc(Cl)cc1)C(=O)O (stereo unspecified) .
Marked response: inactive

Exam item: And then CC(=O)Nc1cc(-c2cccc(NS(C)(=O)=O)c2)cn2c(-c3cccc(C(F)(F)F)c3)cnc12 , what is it?
Marked response: 35.5 µM (active)

* * *

Molecular target: Ataxin-2 (Homo sapiens)
Assay: qHTS for Inhibitors of ATXN expression.
Type: functional
Out of some 400,000 compounds screened, about 2,100 (0.53%) were called active. Another 14% or so got no clear call; they are omitted. The rule behind the calls is not given here. Only a selection was taken, and actives are over-represented in it overall.
The reply should be one of these categories: 1 = active, -1 = inactive

Before answering, review these 10 worked examples.
>>> class_label("Oc1nc(-c2ccccn2)nc2sc(-c3ccccc3)cc12")
-1
>>> class_label("CN(C)CCNc1ncnc2c1sc1nc(-c3ccccc3)c3c(c12)CCCC3")
1
>>> class_label("Cc1c2c(n3c(nc4ccccc43)c1C#N)N(CCN(C)C)CC2")
-1
>>> class_label("Oc1cc(CSc2ccc(Cl)cc2)nc(-c2ccccn2)n1")
1
>>> class_label("O=S(=O)(Nc1nccs1)c1ccc(F)cc1")
-1
>>> class_label("COc1ccc(S(=O)(=O)N2CCOCC2)cc1NC(=O)COC(=O)c1oc2ccccc2c1C")
-1
>>> class_label("Cc1ccc(/C=N/N2C(=O)c3ccccc3NC2c2ccc(C)cc2)cc1 (stereo not given)")
-1
>>> class_label("Nc1nc(Sc2ccc([N+](=O)[O-])c3nonc23)c2nc[nH]c2n1")
1
>>> class_label("CCOC(=O)C1CCCN(C(=O)c2sc3nc4n(c(=O)c3c2C)CCC4)C1 (stereo not given)")
-1
>>> class_label("O=C(c1cnn(C(=O)c2ccco2)c1)c1ccccc1O")
-1

Exam item: Tell me the assay call for CCC(=O)OCCNc1cc(Sc2nccn2C)c2nonc2c1[N+](=O)[O-] please.
Marked response: 1

Exam item: Same again, this time with COC(=O)Cc1c(C)c2ccc3c(c2oc1=O)CN(Cc1ccc(C)cc1)CO3
Marked response: -1

Exam item: Repeat for the following molecule: NC1=Nc2cccc3cccc1c23
Marked response: -1

Exam item: Here is the next molecule: CCCC(=O)OCCNc1cc(Sc2nccn2C)c2nonc2c1[N+](=O)[O-]
Marked response: 1

Exam item: Consider next the molecule COCCCn1c(C(=O)NC2CCCCC2)cc2c(=O)n3cccc(C)c3nc21 in the same way.
Marked response: -1

* * *

Biological target: Ataxin-2 (Homo sapiens) (UniProt Q99700)
Experiment: qHTS for Inhibitors of ATXN expression.
Assay type: functional
About 2,100 (0.53%) of roughly 400,000 compounds were called active. Inconclusive results (about 14%) are left out. The rule behind the calls is not given here. The entries come from a sample that favours actives as a whole.
# valid calls are active, inactive; nothing else

Use these answered entries as a reference point.
>>> class_label("CSc1ccc(/C=C/c2ccc3cccc(O)c3n2)cc1")
"inactive"
>>> class_label("C=CC[C@@H](CC(=O)N(CCO)Cc1ccccc1)C(=O)N[C@H](COC(=O)[C@@H](CC=C)CC(=O)OC(C)(C)C)c1ccccc1")
"active"
>>> class_label("C#CCNC(=O)C[C@@H]1C[C@@]2(C(=O)OCC)CCCC=C2N(CCCCCCCC)C1=O")
"active"
>>> class_label("CN(C)S(=O)(=O)c1cccc(NC(=S)N/N=C/C2CC=CCC2)c1 (stereo not given)")
"inactive"

Exam item: So what was the verdict on CC1C(=O)N(Cc2cn(CCC3OCCO3)nn2)CCS(=O)(=O)N1Cc1ccc(-c2ccc(Cl)c(Cl)c2)cc1 (stereo not given) in this test?
Marked response: active

Exam item: What do you get for Cc1ccc(S(=O)(=O)NN2C(=O)c3ccccc3NC2c2ccccc2)cc1 (stereo not given) ?
Marked response: active

Exam item: Can you check Cc1nc(-c2ccc(S(=O)(=O)Nc3cccc(S(N)(=O)=O)c3)s2)cs1 next?
Marked response: inactive

Exam item: // repeat for CCn1c(/C=C/c2c[nH]c3ccccc23)nc2ccccc2c1=O and report
Marked response: inactive

Exam item: Lookup COc1ccc(C(=O)/C=C/Nc2ccc(S(=O)(=O)Nc3cc(OC)nc(OC)n3)cc2)c(OC)c1
Marked response: inactive

Exam item: Field entry: Nc1cccc2c1C(=O)N(CC(=O)NC13CC4CC(CC(C4)C1)C3)C2=O
Marked response: inactive

Exam item: Now this one: Cc1nc(NCC2CC2)c2nnn(Cc3ccccc3)c2n1
Marked response: inactive

Exam item: Proceed to CC(C)OCCCn1c(-c2ccco2)nc2nc3ccccc3nc21
Marked response: inactive
